Taken from PubChem BioAssay (NCI).

tested on: HL-60(TB) leukemia; test: NCI-60 one-dose screen, 48 h; conditions: 10 µM unless noted
Compounds without any hit were thinned out: in the full panel of roughly 83,000, 20% have a hit. Active and inactive are the calls of the source. The calls were made as follows: active = growth percent below 10; inactive = the rest.
// one of active, inactive, no free text

Answered examples (10):
>>> class_assignment("S=C(SSC(=S)N(c1ccccc1)c1ccccc1)N(c1ccccc1)c1ccccc1")
"inactive"
>>> class_assignment("CC1=CC(C)(C)Nc2ccc(Cc3ccc4c(c3)C(C)=CC(C)(C)N4)cc21")
"inactive"
>>> class_assignment("CCN(CC)CC(O)c1cc(-c2ccc(Cl)cc2)nc2c(C)c(Cl)ccc12 (stereo unspecified)")
"active"
>>> class_assignment("CCOC(=O)c1c2c(n3ccc(NC(=O)CCN(CC)CC)cc13)C(=O)c1ncccc1C2=O")
"active"
>>> class_assignment("Clc1ccccc1Nc1ccc2nnc(-c3ccncc3)n2n1")
"inactive"
>>> class_assignment("N#CC1=C(N)Oc2c(ccc3cccnc23)C1c1ccccc1 (stereo unspecified)")
"inactive"
>>> class_assignment("COc1ccc(Cn2cc3c(c2-c2cc(OC)c(OC)c(OC)c2)CCc2cnoc2-3)cc1")
"active"
>>> class_assignment("O=C1OCC2=C1C(c1cccc(F)c1)c1cc3c(cc1N2CCO)OCO3 (stereo unspecified)")
"active"
>>> class_assignment("COc1ccc2c(c1)[nH]c(=O)c1c3cc(C)c(C)cc3cn21")
"active"
>>> class_assignment("Cc1cc(C)c(C(=O)c2cccs2)c(C)c1")
"inactive"

Qu. # lookup: test call for COc1ccc(OC)c(Nc2nnc(-c3cc(OC)c(OC)c(OC)c3)o2)c1
Ans. inactive
